# experiment-notes: Half life in BALB/c mouse liver microsomes at 1 uM in presence of NADPH by LC-MS/MS analysis
# Type: ADME, microsome
Each entry below carries its recorded half-life at 1 µM.
Give the number; min is assumed, so skip it.

The following molecules have reported results that may help.
{"compound": "CN(Cc1cccc(CNc2ccnc3cc(Cl)ccc23)c1)Cc1ccccn1", "half-life at 1 µM / min": 5.89}
{"compound": "Cc1ncc2n1-c1ccc(Cl)cc1C(c1ccccc1F)=NC2", "half-life at 1 µM / min": 4.74}

Request the reported half-life at 1 µM associated with CN(Cc1ccccc1)Cc1cccc(CNc2ccnc3cc(Cl)ccc23)c1.Cl
6.15

May I ask what half-life at 1 µM has been recorded for CN(Cc1ccccn1)Cc1ccccc1CNc1ccnc2cc(Cl)ccc12 ?
5.49

What value of measured half-life at 1 µM is listed for CN(Cc1ccc(CNc2ccnc3cc(Cl)ccc23)cc1)Cc1ccccn1 ?
5.35

Which measured half-life at 1 µM value corresponds to CN(Cc1ccc(CNc2ccnc3cc(C#N)ccc23)cc1)Cc1ccccn1 ?
6.22

Bench note: what half-life at 1 µM did CN(Cc1ccccn1)Cc1ccccc1CNc1ccnc2cc(C#N)ccc12 show?
5.35

* * *

Reported logD at 4 h values follow for various compounds
# experiment-notes: n-Octanol-buffer distribution coefficient, log D of the compound at pH 5 incubated for 4 hrs by UV-vis based shake flask method
# Assay type: physicochemical

Record excerpt, results attached:
{"compound": "CN(Cc1ccc(CNc2ccnc3cc(C#N)ccc23)cc1)Cc1ccccn1", "val": 1}
{"compound": "CN(Cc1ccccn1)Cc1ccccc1CNc1ccnc2cc(C#N)ccc12", "val": 0.81}
{"compound": "CN(Cc1ccccc1)Cc1cccc(CNc2ccnc3cc(Cl)ccc23)c1.Cl", "val": 1.33}
{"compound": "CN(Cc1cccc(CNc2ccnc3cc(Cl)ccc23)c1)Cc1ccccn1", "val": 0.82}
{"compound": "CN(Cc1ccc(CNc2ccnc3cc(Cl)ccc23)cc1)Cc1ccccn1", "val": 0.84}

Looking for the measured logD at 4 h of CN(Cc1ccccn1)Cc1ccccc1CNc1ccnc2cc(Cl)ccc12 , can you help?
0.9

* * *

# experiment-notes: Intrinsic clearance in BALB/c mouse liver microsomes at 1 uM in presence of NADPH by LC-MS/MS analysis
# Format: ADME, microsome
# condition-info: read-out: CLH
# CLint scaled at 1 µM values compiled below
Expressed in mL/min/kg, but write only the number.

Examples from the recorded data:
{"compound": "CN(Cc1ccccn1)Cc1ccccc1CNc1ccnc2cc(C#N)ccc12", "CLint scaled at 1 µM / mL/min/kg": 1250}
{"compound": "Cc1ncc2n1-c1ccc(Cl)cc1C(c1ccccc1F)=NC2 [MIDAZOLAM]", "CLint scaled at 1 µM / mL/min/kg": 1420}
{"compound": "CN(Cc1ccc(CNc2ccnc3cc(C#N)ccc23)cc1)Cc1ccccn1", "CLint scaled at 1 µM / mL/min/kg": 1100}
{"compound": "CN(Cc1ccc(CNc2ccnc3cc(Cl)ccc23)cc1)Cc1ccccn1", "CLint scaled at 1 µM / mL/min/kg": 1250}
{"compound": "CN(Cc1ccccc1)Cc1cccc(CNc2ccnc3cc(Cl)ccc23)c1.Cl", "CLint scaled at 1 µM / mL/min/kg": 1110}
{"compound": "CN(Cc1ccccn1)Cc1ccccc1CNc1ccnc2cc(Cl)ccc12", "CLint scaled at 1 µM / mL/min/kg": 1220}

Please look up its CLint scaled at 1 µM: CN(Cc1cccc(CNc2ccnc3cc(Cl)ccc23)c1)Cc1ccccn1
1140

* * *

# System: Liver
# experiment-notes: Drug metabolism in BALB/c mouse liver microsomes assessed as oxidation of quinoline core or pyridyl ring at 1 uM in presence of NADPH by mass spectrometric analysis
# Type: ADME, microsome
metric: Drug metabolism

Use the examples below as a reference point.
{"compound": "CN(Cc1ccccn1)Cc1ccccc1CNc1ccnc2cc(C#N)ccc12", "assay-system": "Liver", "val": "Metabolite_Detected"}
{"compound": "CN(Cc1ccccc1)Cc1cccc(CNc2ccnc3cc(Cl)ccc23)c1.Cl", "assay-system": "Liver", "val": "Metabolite_Detected"}
{"compound": "CN(Cc1ccc(CNc2ccnc3cc(C#N)ccc23)cc1)Cc1ccccn1", "assay-system": "Liver", "val": "Metabolite_Detected"}
{"compound": "CN(Cc1cccc(CNc2ccnc3cc(Cl)ccc23)c1)Cc1ccccn1", "assay-system": "Liver", "val": "Metabolite_Detected"}
{"compound": "CN(Cc1ccccn1)Cc1ccccc1CNc1ccnc2cc(Cl)ccc12", "assay-system": "Liver", "val": "Metabolite_Detected"}

Endpoint output: Drug metabolism of CN(Cc1ccc(CNc2ccnc3cc(Cl)ccc23)cc1)Cc1ccccn1 . Value?
Metabolite_Detected

* * *

# experiment-notes: n-Octanol-buffer distribution coefficient, log D of the compound at pH 7.4 […] by HPLC based shake flask method
# Format: physicochemical
metric: logD
Answer with the value's number alone.

Solved cases below.
{"compound": "CN(Cc1cccc(CNc2ccnc3cc(Cl)ccc23)c1)Cc1ccccn1", "val": 2.47}
{"compound": "CN(Cc1ccc(CNc2ccnc3cc(Cl)ccc23)cc1)Cc1ccccn1", "val": 2.85}
{"compound": "CN(Cc1ccc(CNc2ccnc3cc(C#N)ccc23)cc1)Cc1ccccn1", "val": 2.84}

Any idea what its logD is? The compound is CN(Cc1ccccn1)Cc1ccccc1CNc1ccnc2cc(Cl)ccc12
3.79

Returns the measured logD for the input compound. Input: CN(Cc1ccccc1)Cc1cccc(CNc2ccnc3cc(Cl)ccc23)c1.Cl
3.56

Need logD, item CN(Cc1ccccn1)Cc1ccccc1CNc1ccnc2cc(C#N)ccc12
3.8
